- Test system: UACC-62
- Experiment Summary: NCI tumour cell line growth inhibition, 48 h
Calls of active or inactive are those of the source. Cut-off read from the data, not from the text of the source: active = GI50 up to about 1.1 µM and inactive = higher.
Classes used: 1 (active), 0 (inactive)

Compound	Assigned Class
C=C1c2nc3ccccc3n2C=C(c2ccc(OC)cc2)N1c1ccccc1	0
CCCN(CCCCC(NC(C)=O)C(=O)NCc1ccccc1)C(=O)N(C)N=O (stereo not given)	0
CN1Cc2cc3c(cc2-c2ccccc21)OCO3	0
C/C=C/C=C\C=C/C(O)C(C)C(CCC(C)C1OC(=O)C=CC1C)OP(=O)(O)O (stereo not given)	1
CC(C)OC(=O)OCSc1ccccc1/N=C/c1cccc([N+](=O)[O-])c1	0
COC(=O)C1Cc2c([nH]c3ccccc23)C=N1 (stereo not given)	0
CCOC(=O)CSC(=O)NCCCl	0
CC(=O)OC1COC(N2CCc3ccccc32)C(OC(C)=O)C1OC(C)=O (stereo not given)	0
O=[N+]([O-])c1ccc(Sc2c3ccccc3nc3ccccc23)cn1	0
O=[N+]([O-])c1ccc(N/N=C2/CC3=C2CCCCCCCCCC3)c([N+](=O)[O-])c1	0
C=CC1=C(C)c2cc3[nH]c(c4c5nc(cc6[nH]c(cc1n2)c(C)c6CC)C=C5C(=O)C4C(=O)OC)C(CCC(=O)OC/C=C(\C)CCCC(C)CCCC(C)CCCC(C)C)C3C.C=CC1=C(C)c2cc3[nH]c(c4c5nc(cc6[nH]c(cc1n2)c(C=O)c6CC)C=C5C(=O)C4C(=O)OC)C(CCC(=O)OC/C=C(\C)CCCC(C)CCCC(C)CCCC(C)C)C3C (stereo not given)	0
O=c1c2ccccc2ncn1COCc1ccccc1	0
Cc1ccc(OCC2CO2)c(Br)c1 (stereo not given)	0
COC(=O)CCC1(CCC(=O)OC)CCCCCCC(CCC(=O)OC)(CCC(=O)OC)C(=O)C1=O	0
CCOc1ccc(N/C(=C(/C(Cl)=C(/Cl)Nc2ccccc2)[N+](=O)[O-])n2nnc3ccccc32)cc1	0
